// provenance: ChEMBL document CHEMBL1153288

experiment: Therapeutic index, CC50 for human 293T cells to EC50 for G-pseudotyped HIV; format: cell-based; conditions: read-out: Ratio CC50/EC50
Reported Property: selectivity ratio

> print(dat)
                              record.smiles  data.value
1  O=C1CCCN1c1nc(-c2nnc(Cc3ccc(F)cc3)o2)c(O)c2ncccc12       > 156
2  O=C1NCCCN1c1nc(-c2nnc(Cc3ccc(F)cc3)o2)c(O)c2ncccc12       > 250
3  O=C(NCCCO)c1nc(-c2nnc(Cc3ccc(F)cc3)o2)c(O)c2ncccc12        > 30

----------
Collected IC50 values appear next to each entry.
assay: Inhibition of recombinant HIV integrase strand transfer activity; design: species or system Human immunodeficiency virus
Reported Property: IC50 (nM)

> print(dat)
                              record.smiles  unit.tag  data.value
1  O=C(NCCCO)c1nc(-c2nnc(Cc3ccc(F)cc3)o2)c(O)c2ncccc12        nM          71
2  Oc1c(-c2nnc(Cc3ccc(F)cc3)o2)nc(-c2ccncc2)c2cccnc12        nM           8
3  CC(=O)N(C)c1nc(-c2nnc(Cc3ccc(F)cc3)o2)c(O)c2ncccc12        nM          28

----------
assay: Therapeutic index, CC50 for human 293T cells to EC50 for G-pseudotyped HIV; format: cell-based; settings: read-out: Ratio CC50/EC50
This section presents compounds with their documented selectivity ratio values.
Reported Property: selectivity ratio

> print(dat)
                               record.smiles  reported.property  reading.qualifier  data.value
 1  O=C(c1nc(-c2nnc(Cc3ccc(F)cc3)o2)c(O)c2ncccc12)N1CCOCC1  selectivity ratio                  =         134
 2  CNS(=O)(=O)c1ccccc1-c1nc(-c2nnc(Cc3ccc(F)cc3)o2)c(O)c2ncccc12  selectivity ratio                  =         173
 3  CC(=O)N(C)c1nc(-c2nnc(Cc3ccc(F)cc3)o2)c(O)c2ncccc12  selectivity ratio                  =         428
 4  O=C(c1nc(-c2nnc(Cc3ccc(F)cc3)o2)c(O)c2ncccc12)N1CCC(O)CC1  selectivity ratio                  >          65
 5  O=C1CCCCCN1c1nc(-c2nnc(Cc3ccc(F)cc3)o2)c(O)c2ncccc12  selectivity ratio                  >         411
 6  CC(C)NC(=O)c1cccc(-c2nc(-c3nnc(Cc4ccc(F)cc4)o3)c(O)c3ncccc23)c1  selectivity ratio                  =         182
 7  O=C1CN(c2nc(-c3nnc(Cc4ccc(F)cc4)o3)c(O)c3ncccc23)CCN1  selectivity ratio                  =         844
 8  CCOC(=O)C(=O)Nc1nc(-c2nnc(Cc3ccc(F)cc3)o2)c(O)c2ncccc12  selectivity ratio                  =          10
 9  O=C1NCCN1c1nc(-c2nnc(Cc3ccc(F)cc3)o2)c(O)c2ncccc12  selectivity ratio                  =         311
10  CN1CCN(c2nc(-c3nnc(Cc4ccc(F)cc4)o3)c(O)c3ncccc23)C1=O  selectivity ratio                  >         466
11  O=C1OCCN1c1nc(-c2nnc(Cc3ccc(F)cc3)o2)c(O)c2ncccc12  selectivity ratio                  >         666
12  CS(=O)(=O)Nc1cccc(-c2nc(-c3nnc(Cc4ccc(F)cc4)o3)c(O)c3ncccc23)c1  selectivity ratio                  =         435
13  CS(=O)(=O)c1ccc(-c2nc(-c3nnc(Cc4ccc(F)cc4)o3)c(O)c3ncccc23)cc1  selectivity ratio                  =         301
14  CC(C)NS(=O)(=O)c1ccc(-c2nc(-c3nnc(Cc4ccc(F)cc4)o3)c(O)c3ncccc23)cc1  selectivity ratio                  =         118
15  Oc1c(-c2nnc(Cc3ccc(F)cc3)o2)nc(-n2cccn2)c2cccnc12  selectivity ratio                  =         546

----------
test: Inhibition of recombinant HIV integrase strand transfer activity; parameters: species or system Human immunodeficiency virus
pIC50: −log10 of the molar value.
compounds and their reported pIC50
Reported Property: pIC50

> print(dat)
                              record.smiles  data.value
1  CN(C)S(=O)(=O)c1ccccc1-c1nc(-c2nnc(Cc3ccc(F)cc3)o2)c(O)c2ncccc12        8.40
2  CNC(=O)c1nc(-c2nnc(Cc3ccc(F)cc3)o2)c(O)c2ncccc12        6.92
3  CN1CCN(C(=O)c2nc(-c3nnc(Cc4ccc(F)cc4)o3)c(O)c3ncccc23)CC1        7.36
4  CN(C)C(=O)c1ccc(-c2nc(-c3nnc(Cc4ccc(F)cc4)o3)c(O)c3ncccc23)cc1        7.74

----------
assay: Inhibition of recombinant HIV integrase strand transfer activity; parameters: species or system Human immunodeficiency virus
Quick reference for IC50 among some molecules
Reported Property: IC50 (nM)

> print(dat)
                               record.smiles  data.value
 1  N#Cc1ccc(-c2nc(-c3nnc(Cc4ccc(F)cc4)o3)c(O)c3ncccc23)cc1          15
 2  CN(C)C(=O)CN1CCN(c2nc(-c3nnc(Cc4ccc(F)cc4)o3)c(O)c3ncccc23)CC1          12
 3  CC(=O)Nc1ccc(-c2nc(-c3nnc(Cc4ccc(F)cc4)o3)c(O)c3ncccc23)cc1           4
 4  O=C(c1nc(-c2nnc(Cc3ccc(F)cc3)o2)c(O)c2ncccc12)N1CCC(O)CC1          27
 5  CNc1nc(-c2nnc(Cc3ccc(F)cc3)o2)c(O)c2ncccc12          74
 6  CS(=O)(=O)Nc1cccc(-c2nc(-c3nnc(Cc4ccc(F)cc4)o3)c(O)c3ncccc23)c1           8
 7  CCOC(=O)C(=O)Nc1nc(-c2nnc(Cc3ccc(F)cc3)o2)c(O)c2ncccc12          33
 8  CC(=O)Nc1cccc(-c2nc(-c3nnc(Cc4ccc(F)cc4)o3)c(O)c3ncccc23)c1          80
 9  Oc1c(-c2nnc(Cc3ccc(F)cc3)o2)nc(-c2ccccc2)c2cccnc12          29
10  CC(C)NS(=O)(=O)c1ccc(-c2nc(-c3nnc(Cc4ccc(F)cc4)o3)c(O)c3ncccc23)cc1           4
11  CN(C)S(=O)(=O)Nc1nc(-c2nnc(Cc3ccc(F)cc3)o2)c(O)c2ncccc12          15
12  CC(C)NC(=O)c1nc(-c2nnc(Cc3ccc(F)cc3)o2)c(O)c2ncccc12         190
13  CS(=O)(=O)Nc1nc(-c2nnc(Cc3ccc(F)cc3)o2)c(O)c2ncccc12          19
14  O=C1CNCCN1c1nc(-c2nnc(Cc3ccc(F)cc3)o2)c(O)c2ncccc12          38
15  O=C1NCCCN1c1nc(-c2nnc(Cc3ccc(F)cc3)o2)c(O)c2ncccc12          11
16  CS(=O)(=O)c1ccc(-c2nc(-c3nnc(Cc4ccc(F)cc4)o3)c(O)c3ncccc23)cc1           9
17  O=C1CCCN1c1nc(-c2nnc(Cc3ccc(F)cc3)o2)c(O)c2ncccc12          19
18  O=C1NCCN1c1nc(-c2nnc(Cc3ccc(F)cc3)o2)c(O)c2ncccc12          12
19  O=C1N(CCO)CCN1c1nc(-c2nnc(Cc3ccc(F)cc3)o2)c(O)c2ncccc12          13
20  O=C(O)c1cccc(-c2nc(-c3nnc(Cc4ccc(F)cc4)o3)c(O)c3ncccc23)c1           2
21  O=S1(=O)CCCN1c1nc(-c2nnc(Cc3ccc(F)cc3)o2)c(O)c2ncccc12           8
22  CC(C)NC(=O)c1cccc(-c2nc(-c3nnc(Cc4ccc(F)cc4)o3)c(O)c3ncccc23)c1          10
23  CN(C)S(=O)(=O)c1ccc(-c2nc(-c3nnc(Cc4ccc(F)cc4)o3)c(O)c3ncccc23)cc1          18

----------
experiment: Therapeutic index, CC50 for human 293T cells to EC50 for G-pseudotyped HIV; assay type: cell-based; settings: read-out: Ratio CC50/EC50
Reported Property: selectivity ratio

> print(dat)
                              record.smiles  reported.property  reading.qualifier  data.value
1  O=S1(=O)CCCN1c1nc(-c2nnc(Cc3ccc(F)cc3)o2)c(O)c2ncccc12  selectivity ratio                  >         129
2  Oc1c(-c2nnc(Cc3ccc(F)cc3)o2)nc(-c2cccnc2)c2cccnc12  selectivity ratio                  =         194
3  O=S1(=O)CCCCN1c1nc(-c2nnc(Cc3ccc(F)cc3)o2)c(O)c2ncccc12  selectivity ratio                  =         198
4  CN(C)C(=O)C(=O)N(C)c1nc(-c2nnc(Cc3ccc(F)cc3)o2)c(O)c2ncccc12  selectivity ratio                  >          40
